Tested on: DMS 273 small cell lung
Assay: NCI tumour cell line growth inhibition, 48 h
property: TGI

Examples from the recorded data:
Give the value of TGI reported for the following: CCOC(=O)C(NC(=O)c1ccc(N=NN(C)C)cc1)C(C)C (centres undefined)
> 100 µM

Give the value of TGI reported for the following: "CC(=O)[CH-]C(C)=O.CC(=O)[CH-]C(C)=O.N=CC=N.[Sn+2]"
8.57 µM

Give the value of TGI reported for the following: "COc1ccc(C2=NC(C)(C)CO2)cc1"
> 100 µM

Give the value of TGI reported for the following: "CN1CCN(C)C1c1cccc(C2N(C)CCN2C)c1"
> 100 µM

Give the value of TGI reported for the following: COCC(=O)OC1CCn2c1nc1c2C(=O)C(C)=C(NC(C)=O)C1=O (centres undefined)
33.6 µM

Give the value of TGI reported for the following: "O=C1c2ccccc2-c2cccc3ccc(Cc4ccccc4)c1c23"
> 100 µM

More entries:
Give the value of TGI reported for the following: "O=c1cc(-c2ccccc2F)[nH]c2cc3c(cc12)OCO3"
> 100 µM

Give the value of TGI reported for the following: "Oc1c2c(c(O)c3ccccc13)=N[C@@H](c1ccccc1)[C@H](c1ccccc1)N=2"
> 100 µM

Give the value of TGI reported for the following: "COc1ccc(/C=C/C(=O)c2sc(-n3nc(-c4ccccc4)cc3-c3ccccc3)nc2C)cc1OC"
> 100 µM
